# target-or-system: Glutamate NMDA receptor (Rattus norvegicus) (UniProt P35439+Q00959+Q00960+Q00961+Q62645+Q8VHN2+Q9R1M7)
# measurement-notes: Apparent dissociation constant of [3H]glycine from N-methyl-D-aspartate glutamate receptor in rat cortical slice preparation expressed as log values.
Entries are sorted into classes by -Log 1/Kb as follows: group A = under 4, group B = from 4 up to 5, group C = 5 and over

Place this molecule in its band: CCc1cc(Br)c2c(O)cc(C(=O)O)nc2c1
group B

Others:
Place this molecule in its band: O=C(O)c1cc(O)c2c(C(F)(F)F)cccc2n1
group B

Place this molecule in its band: O=C(O)c1cc(O)c2ccc(Cl)cc2n1
group C

Place this molecule in its band: C=Cc1ccc2c(O)cc(C(=O)O)nc2c1
group A

Place this molecule in its band: O=C(O)c1cc(O)c2c(Br)cccc2n1
group B

Place this molecule in its band: CCc1cc(Br)cc2nc(C(=O)O)cc(O)c12
group C

Place this molecule in its band: Cc1cc(C)c2c(O)cc(C(=O)O)nc2c1
group C

Place this molecule in its band: CCc1ccc2c(O)cc(C(=O)O)nc2c1
group A

Place this molecule in its band: Cc1cc(I)c2c(O)cc(C(=O)O)nc2c1
group C

Place this molecule in its band: O=C(O)c1cc(O)c2c(Cl)cccc2n1
group B

Place this molecule in its band: CCCc1cccc2nc(C(=O)O)cc(O)c12
group A

Place this molecule in its band: O=C(O)c1cc(O)c2c(F)cccc2n1
group B

Place this molecule in its band: CCc1cc(Cl)cc2nc(C(=O)O)cc(O)c12
group C

Place this molecule in its band: Cc1cc(Br)c2c(O)cc(C(=O)O)nc2c1
group C

Place this molecule in its band: O=C(O)c1cc(O)c2ccc(F)cc2n1
group B

Place this molecule in its band: Cc1ccc2c(O)cc(C(=O)O)nc2c1
group B

Place this molecule in its band: CCc1cc(Cl)c2c(O)cc(C(=O)O)nc2c1
group B

Place this molecule in its band: O=C(O)c1cc(O)c2c(Br)cc(Br)cc2n1
group C

Place this molecule in its band: CCCCc1cccc2nc(C(=O)O)cc(O)c12
group A

----------
So I've got a bunch of compounds here, and I need their Kb values.
# target-or-system: Glutamate receptor ionotropic, AMPA (Rattus norvegicus) (UniProt P19491+P19492+P19493+P19490)
# measurement-notes: Apparent dissociation constant of [3H]AMPA from quisqualate receptor of rat cortical slices
# Format: protein-complex assay
Give bare numbers, in µM.

As a guide, the following entries are already answered.
What does the data say about its Kb? Entry: O=C(O)c1cc(O)c2cc(F)ccc2n1
48

What does the data say about its Kb? Entry: CSc1ccc2nc(C(=O)O)cc(O)c2c1
56

What does the data say about its Kb? Entry: O=C(O)c1cc(O)c2cc([N+](=O)[O-])ccc2n1
52

// for each compound in input: emit Kb
1. Cc1ccc2nc(C(=O)O)cc(O)c2c1
2. COc1ccc2nc(C(=O)O)cc(O)c2c1
3. O=C(O)c1cc(O)c2cc(I)ccc2n1
4. O=C(O)c1cc(O)c2cc(Br)ccc2n1

[66, 87, 56, 28]

----------
# target-or-system: Glutamate NMDA receptor
# measurement-notes: Inhibition of [3H]glycine binding to glycine site of N-methyl-D-aspartate glutamate receptor in rat cortical membranes
# Format: cell membranes, Membrane
reported-property: IC50

As a guide, the following entries are already answered.
What does the data say about its IC50? Entry: CCCCc1cccc2nc(C(=O)O)cc(O)c12
> 100 µM

What does the data say about its IC50? Entry: O=C(O)c1cc(O)c2c(Cl)c(Cl)c(Cl)cc2n1
2.4 µM

What does the data say about its IC50? Entry: Cc1cc2[nH]c(=O)c(=O)n(C)c2cc1C
6.6 µM

// for each compound in input: emit IC50
1. CCCCc1ccc2c(O)cc(C(=O)O)nc2c1
2. O=C(O)c1nc2cc(Cl)ccc2[nH]1
3. COc1nc2cc(C)c(C)cc2nc1O
4. O=c1[nH]c2ccc(Cl)cc2[nH]c1=O

["> 100 µM", "5.6 µM", "> 100 µM", "8.4 µM"]
